B1: library; a variant is named by its letters at N, in order (parent)
chain: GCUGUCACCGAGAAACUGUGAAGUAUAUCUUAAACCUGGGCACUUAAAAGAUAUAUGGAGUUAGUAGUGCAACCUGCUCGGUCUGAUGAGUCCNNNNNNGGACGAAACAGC

Variants of: B1
Assay: normalized RNA/DNA level with ligand (relative to sTRSVctl = 100) (log10 (% of sTRSVctl)); HEK293T; ligand: cyclic di-GMP (c-di-GMP-II aptamer); ligand concentration (+) RNA-Seq: 1 mM; higher = less ribozyme self-cleavage, higher mRNA level
Conditions: reporter: mCherry (pCS4076), ligand present: yes
Quantity Measured: normalized RNA/DNA level with ligand (log10)
The answer should be a number; do not append a unit.

Here are 3 variants together with their reported answers.
>>> print(df.to_string())
   alteration  number
0      UUCCUG    1.91
1      CAUUUA    1.51
2      AUCCCA    1.86

Just so you know, measured normalized RNA/DNA level with ligand (log10) for AGUAGC came out at 1.8

Just so you know, measured normalized RNA/DNA level with ligand (log10) for CGUGCU came out at 1.81

Just so you know, measured normalized RNA/DNA level with ligand (log10) for GACGCC came out at 1.83

Just so you know, measured normalized RNA/DNA level with ligand (log10) for GGCAGU came out at 1.85
